biological target: SARS-CoV-2 M^pro (Severe acute respiratory syndrome coronavirus 2); experiment: SPE-MS M^pro inhibition assay; format: biochemical; details: additional replicates using premade DMSO stock solutions; read-out: IC50
pIC50: −log10 of the molar value.
value.type: pIC50

Briefly, pIC50 measured for "CO[C@@]1(NC(=O)COc2ccccc2)C(=O)N2[C@@H](C(=O)OCc3ccccc3)C(C)(C)S[C@@H]21" : ~5.30

* * *

target: SARS-CoV-2 M^pro (Severe acute respiratory syndrome coronavirus 2); assay: SPE-MS M^pro inhibition assay; format: biochemical; settings: SPE-MS; M^pro 0.05 μM, substrate 2.0 μM; n = 3, mean ± SD; freshly prepared DMSO stocks for 8; read-out: IC50
value.type: IC50

{"columns": ["compound", "IC50"],
 "data": [
  ["CO[C@@]1(NC(=O)COc2ccccc2)C(=O)N2[C@@H](C(=O)OCc3ccccc3)C(C)(C)S[C@@H]21 [compound 8]", "> 50 µM"]
]}

I need IC50 for every entry listed below, if you could help.
1. CC1(C)[C@H](C(=O)OCc2ccccc2)N2C(=O)[C@@H](NC(=O)Cc3ccccc3)[C@H]2S1(=O)=O [compound 19]
2. CC1(C)[C@H](C(=O)OCc2ccccc2)N2C(=O)[C@@H](NC(=O)Cc3ccccc3)[C@H]2[S@+]1[O-] [compound 23]
3. CCO[C@H]1C(=O)N2[C@@H]1SC(C)(C)[C@@H]2C(=O)OCc1ccccc1 [26b]
4. CC1(C)C(C(=O)OCc2ccccc2)N2C(=O)C(NC(=O)Cc3ccccc3)C2[S+]1[O-] (centres unmarked) [compound 21]
5. CC1(C)S[C@@H]2[C@H](NC(=O)Cc3ccccc3)C(=O)N2[C@H]1C(=O)OCc1ccccc1 [compound 18]

1. > 50 µM
2. > 50 µM
3. 0.8 µM
4. > 50 µM
5. > 50 µM

I need IC50 for every entry listed below, if you could help.
1. CC1(C)C(C(=O)OCc2ccccc2)N2C(=O)C(OCc3ccccc3)C2S1(=O)=O (centres unmarked) [27f]
2. COC1(NC(=O)Cc2ccccc2)C(=O)N2C1[S+]([O-])C(C)(C)C2C(=O)OCc1ccc([N+](=O)[O-])cc1 (centres unmarked) [compound 2]

1. 35 µM
2. 0.5 µM

meta.source: paper PMC12588090
